Tested on: biotinyl-Ile-oxazolone
Assay: self-aminoacylation, catalytic enhancement (BIO) (fold over background); higher = more active; k-Seq, kA / k0A0; sequences stand for … in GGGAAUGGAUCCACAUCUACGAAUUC…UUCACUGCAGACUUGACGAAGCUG
This sample holds only a part of the variants without activity.
Overview of reported self-aminoacylation across a group of sequences:

{"macromolecule.sequence": "AAGUUUGAUAAAAGUCGCAAG [Fam3.1 aminoacylation ribozyme variant]", "self-aminoacylation": 1.51}
{"macromolecule.sequence": "AAGUAUGCUCAUAGUCGCAAG [Fam3.1 aminoacylation ribozyme variant]", "self-aminoacylation": 1.83}
{"macromolecule.sequence": "AUUACCAUUGUCAUCGAGUGA [Fam2.1 aminoacylation ribozyme variant]", "self-aminoacylation": 4.32}
{"macromolecule.sequence": "AUUCAUCUAGGUCUUCGGGUG [Fam2.2 aminoacylation ribozyme variant]", "self-aminoacylation": 3.75}
{"macromolecule.sequence": "UUUCACAUAGGUCAUCGGGUG [Fam2.2 aminoacylation ribozyme variant]", "self-aminoacylation": 5.3}
